Recorded pIC50 for molecules tested on Fatty-acid amide hydrolase 1 (Mus musculus), drawn from a number of studies.
pIC50: −log10 of the molar value.

Query: What measured pIC50 goes with CCOc1ccc(-c2ccc(N3CCN(C(=O)OCC(=O)NC)CC3)cc2)cc1 ?
Reply: 7.36

Query: Which pIC50 value belongs to CC(=O)N(C)c1cnn(C(=O)N2CCN(Cc3cccc(F)c3)CC2)c1 ?
Reply: 6.00 to 7.00

Query: Endpoint output: pIC50 of CC(=O)N(C)c1cnn(C(=O)N2CC3CN(Cc4ccc(Oc5ccc(Cl)cc5)cc4)CC3C2)c1 (centres unmarked) . Value?
Reply: ≥ 7.00

Query: I have this molecule here, O=C(CCCCCCc1ccccc1)c1ncno1 , and I need its recorded pIC50.
Reply: 8.40

Query: pIC50 for O=C(OCc1nccs1)N1CCC(CCOc2ccccc2-c2nc3ccccc3o2)CC1 ?
Reply: 7.89

Query: May I ask what pIC50 has been recorded for CC(=O)N(C)c1cnn(C(=O)N2CC3CN(Cc4ccc(Cl)c(C(F)(F)F)c4)CC3C2)c1 (centres unmarked) ?
Reply: ≥ 7.00

Query: For the molecule shown here, CC(=O)N(C)c1cnn(C(=O)N2CC3CN(Cc4ccccc4F)CC3C2)c1 (centres unmarked) , give the reported pIC50.
Reply: ≥ 7.00

Query: Which pIC50 reading was recorded for the molecule CC(=O)N(C)c1cnn(C(=O)N2C[C@H]3C[C@@H](N(C)Cc4cc(Cl)ccc4C(F)(F)F)C[C@H]3C2)c1 ?
Reply: ≥ 7.00

Others:
Query: Fill in the blank: the reported pIC50 of CC(=O)N(C)c1cnn(C(=O)N2CC3CN(Cc4cc(N5CCCC5)cc(C(F)(F)F)c4)CC3C2)c1 (centres unmarked) is ____.
Reply: ≥ 7.00

---

Below are IC50 measurements against UniProt O08914 drawn from the literature.

Example entries and their recorded answers appear below.
Query: Request body: readout IC50, system UniProt O08914, query CC(=O)N(C)c1cnn(C(=O)N2CC3CN(Cc4ccc(Oc5ccccc5)cc4)CC3C2)c1 (stereo not drawn) . Return the value.
Reply: ≤ 100 nM

Query: Recorded IC50 for CC(=O)N(C)c1cnn(C(=O)N2C[C@H]3C[C@H](NCc4cccc(Cl)c4)C[C@H]3C2)c1 with UniProt O08914, please?
Reply: 100 to 1000 nM

Query: Form entry - test system: UniProt O08914; read-out: IC50; compound: NC(=O)c1cc(COC(=O)N2CC[C@H](COc3ccc4ccccc4c3)C2)on1 (single isomer, unassigned)
Reply: 8 nM

Query: Short answer please: IC50, UniProt O08914, entry CC(=O)N(C)c1cnn(C(=O)N2CCC3(CCN(Cc4ccccc4Cl)C3)C2)c1 (stereo not drawn)
Reply: ≤ 100 nM

Query: Value wanted: IC50 (UniProt O08914) of entry CC(=O)N(C)c1cnn(C(=O)N2CCN(Cc3cccc(N4CCCC4)c3)CC2)c1
Reply: 100 to 1000 nM

Query: Find IC50 (UniProt O08914) for the entry CC(=O)N(C)c1cnn(C(=O)N2CC3CN(Cc4cccc(Oc5ccccc5)c4)CC3C2)c1 (stereo not drawn)
Reply: ≤ 100 nM

Query: Request: IC50, test system UniProt O08914, entry CC(=O)N(C)c1cnn(C(=O)N2CCN(Cc3cccc(C(F)(F)F)c3)CC2)c1
Reply: ≤ 100 nM

Query: Enter reported IC50 observed with UniProt O08914 for CC(=O)N(C)c1cnn(C(=O)N2CC3CN(Cc4ccc(F)c(Cl)c4)CC3C2)c1 (stereo not drawn)
Reply: ≤ 100 nM

***
Query: Which measured IC50 belongs to CCCCOc1cccc(OCCC2CCN(C(=O)OCc3nccs3)CC2)c1 , tested on UniProt O08914?
Reply: 95 nM

Query: # returns recorded IC50 (system: UniProt O08914) for NC(=O)COC(=O)NCCCCOc1cccc2ccccc12
Reply: 470 nM

Query: Hi! What's the reported IC50 for CC(=O)N(C)c1cnn(C(=O)N2CC3CN(Cc4ccc(C)cc4Cl)CC3C2)c1 (stereo not drawn) on UniProt O08914?
Reply: ≤ 100 nM

Query: Hi! What's the reported IC50 for NC(=O)c1cc(COC(=O)N2CC[C@@H](COc3ccc4ccccc4c3)C2)on1 (single isomer, unassigned) on UniProt O08914?
Reply: 122 nM
